Recorded measurements of inhibition, one per entry
target: Mannose-6-phosphate isomerase (Homo sapiens); experiment: MPI inhibition at elevated mannose 6-phosphate – biochemical, fluorescence intensity, high mannose 6-phosphate, primary screen (AID 1220); details: recombinant PMI enzyme, coupled fluorescence intensity; at 20 µM; stronger effect = higher value
Out of some 190,000 compounds screened, about 1,300 (0.68%) were called active. This is one part of a sample in which actives are shown more often than they occur.
measured metric: inhibition (%)

[
  {
    "molecule": "CN1CCN(CC(O)(c2ccc(Cl)cc2)c2ccc(Cl)cc2)CC1",
    "measured metric": "inhibition",
    "unit label": "%",
    "measured number": 55.4
  },
  {
    "molecule": "Cc1ccc(-c2nnn(CC(=O)N(CC3CCCO3)C(C(=O)NCC3CCCO3)c3ccc(F)cc3)n2)o1 (stereo not given)",
    "measured metric": "inhibition",
    "unit label": "%",
    "measured number": 2.7
  },
  {
    "molecule": "Cc1cc(Cl)ccc1OCCCC(=O)N1CCCCC1",
    "measured metric": "inhibition",
    "unit label": "%",
    "measured number": -5.5
  },
  {
    "molecule": "O=C(Nc1cccc(NC(=O)c2cccs2)c1)c1cccnc1",
    "measured metric": "inhibition",
    "unit label": "%",
    "measured number": 50.8
  },
  {
    "molecule": "CC1(C)C(=O)NCCN1C(=O)CCCC(=O)O",
    "measured metric": "inhibition",
    "unit label": "%",
    "measured number": 2.6
  },
  {
    "molecule": "NS(=O)(=O)c1ccc(CCNC(=O)NC2(C(F)(F)F)Oc3ccccc3O2)cc1",
    "measured metric": "inhibition",
    "unit label": "%",
    "measured number": -9.2
  },
  {
    "molecule": "NCC(O)(c1ccc(Cl)cc1)c1ccc(Cl)cc1",
    "measured metric": "inhibition",
    "unit label": "%",
    "measured number": 10.4
  },
  {
    "molecule": "CCN(Cc1ccncc1)S(=O)(=O)c1ccc(C(C)=O)cc1",
    "measured metric": "inhibition",
    "unit label": "%",
    "measured number": -13.6
  },
  {
    "molecule": "COc1ccc(-c2nc(S(=O)(=O)c3ccccc3)c(N3CCOCC3)o2)cc1",
    "measured metric": "inhibition",
    "unit label": "%",
    "measured number": 3.3
  },
  {
    "molecule": "O=C1CNC(=S)N1c1nc(-c2ccccc2)cs1",
    "measured metric": "inhibition",
    "unit label": "%",
    "measured number": 0.9
  },
  {
    "molecule": "CCOC(=O)Cc1csc(SCC(=O)NC2CCCCC2)n1",
    "measured metric": "inhibition",
    "unit label": "%",
    "measured number": -6
  },
  {
    "molecule": "CCNC(=S)Nc1ccc(S(=O)(=O)Nc2cc(C)nc(C)n2)cc1",
    "measured metric": "inhibition",
    "unit label": "%",
    "measured number": -7.6
  },
  {
    "molecule": "O=C1CN2NC(=S)N(c3ccc(Cl)cc3)C2=CN1c1ccc(Cl)cc1",
    "measured metric": "inhibition",
    "unit label": "%",
    "measured number": -2.8
  },
  {
    "molecule": "CCOC(=O)Cc1csc(SCC(=O)NC(C)C23CC4CC(CC(C4)C2)C3)n1 (stereo not given)",
    "measured metric": "inhibition",
    "unit label": "%",
    "measured number": 51
  },
  {
    "molecule": "O=C(COC(=O)c1ccc2c(=O)n3c(nc2c1)CCC3)NC1CCS(=O)(=O)C1 (stereo not given)",
    "measured metric": "inhibition",
    "unit label": "%",
    "measured number": -5.4
  },
  {
    "molecule": "O=C(Nc1ccc(NC(=O)c2cccs2)cc1)c1cccnc1",
    "measured metric": "inhibition",
    "unit label": "%",
    "measured number": -2.7
  },
  {
    "molecule": "CCOC(=O)c1ccc(CN(Cc2ccc(C)cc2)S(=O)(=O)c2cccc([N+](=O)[O-])c2)cc1",
    "measured metric": "inhibition",
    "unit label": "%",
    "measured number": -10
  },
  {
    "molecule": "CN1CCN(CC(C)(C)NS(=O)(=O)c2ccc(Cl)cc2)CC1",
    "measured metric": "inhibition",
    "unit label": "%",
    "measured number": 3.4
  },
  {
    "molecule": "Cc1cccc(NC2SC(=O)NC2=O)c1 (stereo not given)",
    "measured metric": "inhibition",
    "unit label": "%",
    "measured number": 0.9
  },
  {
    "molecule": "COc1ccc(/C=C/C(=O)OCCCN(C)C)cc1",
    "measured metric": "inhibition",
    "unit label": "%",
    "measured number": -6.3
  }
]
